ASSAY DETAILS: Toxicity liver stage against HepG2, at 10uM
Assay type: cell-based
Set-up: test concentration 10 uM, cell line HepG2-A16-CD81EGFP
EXPERIMENTAL CONDITIONS: human, HepG2-A16-CD81EGFP cells; read-out: INHIBITION
Listed here are molecules together with their documented cytotoxicity at 10 µM.
Express your answer in %, writing the number without its unit.

The following molecules have reported results that may help.
| MOLECULE | PROPERTY MEASURED | UNIT SYMBOL | ASSAY VALUE |
| --- | --- | --- | --- |
| Cc1nn(CC(=O)N2CCN(Cc3cnn(C)c3C)CC2)cc1Cl | cytotoxicity at 10 µM | % | -3.22 |
| CCC(Oc1ccc(N(C)S(C)(=O)=O)cc1)C(N)=O (stereo unspecified) | cytotoxicity at 10 µM | % | -4.18 |
| CCOc1cccc(COC(=O)c2cc(Cl)ccn2)n1 | cytotoxicity at 10 µM | % | -2.52 |
| Cc1ccc(C2c3c(n[nH]c3C)N=C3COC(=O)C32)cc1C (stereo unspecified) | cytotoxicity at 10 µM | % | 74.9 |
| CCc1ncc2c(n1)CN(C(C(N)=O)c1ccccc1)CC2 (stereo unspecified) | cytotoxicity at 10 µM | % | -2.35 |
| Cc1nc(N(C)C)nc2c1COCC21CCN(C(=O)C2CC2)C1 (stereo unspecified) | cytotoxicity at 10 µM | % | 4.27 |

-- ask # get_value(readout='cytotoxicity at 10 µM', item= "CCN1CCN(S(=O)(=O)c2cc(C)c(Cl)cc2C)CC1" )
-- reply -3.89

-- ask # get_value(readout='cytotoxicity at 10 µM', item= CC1CN(Cc2noc(C3CC3)n2)CCN1Cc1nccn1C (stereo unspecified) )
-- reply -10

* * *

Listed here are compounds together with their documented cytotoxicity at 10 µM.
ASSAY DETAILS: Toxicity liver stage against HepG2, at 10uM
Type: cell-based
Parameters: test concentration 10 uM, cell line HepG2-A16-CD81EGFP
EXPERIMENTAL CONDITIONS: human, HepG2-A16-CD81EGFP cells; read-out: INHIBITION
Express your answer in %, writing the number without its unit.

The following compounds have reported results that may help.
| COMPOUND | cytotoxicity at 10 µM [%] |
| --- | --- |
| O=C(c1cc(F)ccc1O)N1CCN(C2CCOCC2)CC1 | -4.9 |
| COC(=O)N1CCC(NC(=O)N2CCCC2c2ccsc2)CC1 (centres undefined) | 10.5 |
| COCCS(=O)(=O)N(Cc1cscn1)c1ccccc1 | -3.3 |
| CN1CCC2(CCCN(c3nccc(C(F)(F)F)n3)C2)CC1 | 4.14 |
| Cc1ccc(-n2ccnc2)c(C(=O)NCCOCC2CCCO2)c1 (centres undefined) | -139 |
| Cc1cc2n(n1)[C@@H](C(F)(F)F)C[C@@H](C1CCCN(C(=O)C(C)C)C1)N2 (some centres undefined) | -22.1 |
| CCc1cc(N2CCC(n3cc(C(=O)NC4CC4)nn3)CC2)ncn1 | 27.7 |
| CCn1cnnc1CNC(=O)NCC(c1cccs1)N1CCCC1 (centres undefined) | -7.72 |

-- ask # get_value(readout='cytotoxicity at 10 µM', item= Fc1cccc(-n2ccc(CN3CCCC3Cn3cncn3)n2)c1 (centres undefined) )
-- reply -9.43

-- ask # get_value(readout='cytotoxicity at 10 µM', item= CCCn1cc(CN2CCCC2c2nccc(CN(C)C)n2)cn1 (centres undefined) )
-- reply 19.7

-- ask # get_value(readout='cytotoxicity at 10 µM', item= "O=C(O)[C@]12CCCN(Cc3ccsc3)C[C@H]1CN(c1ccccn1)C2" )
-- reply -139

-- ask # get_value(readout='cytotoxicity at 10 µM', item= "Cc1ccc(F)c(OC2(C(=O)O)CCN(C(=O)C3CCCC3)CC2)c1" )
-- reply 3.33

-- ask # get_value(readout='cytotoxicity at 10 µM', item= CC(O)CN1CCC(CN(C)CCC(=O)NC2CCCCC2)CC1 (centres undefined) )
-- reply 4.11

-- ask # get_value(readout='cytotoxicity at 10 µM', item= CNc1cncc(C2CCCN2c2cc(C)ncn2)n1 (centres undefined) )
-- reply -23.3

-- ask # get_value(readout='cytotoxicity at 10 µM', item= CC(C)c1noc(CCC(=O)NCC(c2ccco2)N2CCCC2)n1 (centres undefined) )
-- reply -9.71

-- ask # get_value(readout='cytotoxicity at 10 µM', item= CC(C)Cc1noc(CN2CCCC(Cn3cncn3)C2)n1 (centres undefined) )
-- reply -2.6

-- ask # get_value(readout='cytotoxicity at 10 µM', item= CC(=O)N1CCCC1c1cccc(NCc2ccccc2F)n1 (centres undefined) )
-- reply -13.8

-- ask # get_value(readout='cytotoxicity at 10 µM', item= COc1ccc(Cn2nnnc2SCC2CCCN(C)C2)cc1 (centres undefined) )
-- reply -1.33

-- ask # get_value(readout='cytotoxicity at 10 µM', item= "COc1ncccc1NC(=O)c1cccc(C)n1" )
-- reply 2.3

-- ask # get_value(readout='cytotoxicity at 10 µM', item= CC(CNC(=O)c1cc(C2CC2)on1)N1CCc2ccccc21 (centres undefined) )
-- reply -11.8

-- ask # get_value(readout='cytotoxicity at 10 µM', item= "Cc1cc(C)c2ncn(CC(C)(C)CO)c(=O)c2c1" )
-- reply 15.4

-- ask # get_value(readout='cytotoxicity at 10 µM', item= "CCOC(=O)N1[C@@H](c2ccco2)[C@@H](CO)C[C@]12CCCCNC2=O" )
-- reply 0.644

-- ask # get_value(readout='cytotoxicity at 10 µM', item= COc1ccc(C(=O)N2CCCC(NC(=O)C(C)C)C2)c(O)c1 (centres undefined) )
-- reply 0.301

-- ask # get_value(readout='cytotoxicity at 10 µM', item= O=C(C1NCCc2[nH]cnc21)N1CCC2(C=Cc3ccccc32)CC1 (centres undefined) )
-- reply 5.19

* * *

Listed here are compounds together with their documented cytotoxicity at 10 µM.
ASSAY DETAILS: Toxicity liver stage against HepG2, at 10uM
Assay type: cell-based
Design: test concentration 10 uM, cell line HepG2-A16-CD81EGFP
EXPERIMENTAL CONDITIONS: human, HepG2-A16-CD81EGFP cells; read-out: INHIBITION
Express your answer in %, writing the number without its unit.

The following compounds have reported results that may help.
| COMPOUND | cytotoxicity at 10 µM [%] |
| --- | --- |
| O=C1CCCN1CCC1CCN(C2CCC3(CCNCC3)CC2)CC1 | 10.9 |
| CN(C)C(=O)C1CCC2(CCN(Cc3ccc4ccccc4n3)CC2)O1 (centres undefined) | 5.09 |
| CC(=O)N[C@H]1CCO[C@@H](c2cccc(NC(=O)C(C)(C)C)c2)C1 | 6.17 |
| CCOC(=O)C1CC2(CCCC2)N2CCC(=O)N12 (centres undefined) | 1.53 |

-- ask # get_value(readout='cytotoxicity at 10 µM', item= "O=C(NC1(c2nnn(Cc3ccncc3)n2)CCCC1)c1ccccc1" )
-- reply 21

-- ask # get_value(readout='cytotoxicity at 10 µM', item= CSCc1noc(CN2CCCCC2CCc2ccc(O)cc2)n1 (centres undefined) )
-- reply -1.58

-- ask # get_value(readout='cytotoxicity at 10 µM', item= O=C(NCc1csc2ccccc12)NCC1(O)CCSC1 (centres undefined) )
-- reply 3.19

-- ask # get_value(readout='cytotoxicity at 10 µM', item= "COCC[C@]1(O)CCN(Cc2nnc(C)s2)C[C@H]1C" )
-- reply 8.62

-- ask # get_value(readout='cytotoxicity at 10 µM', item= "COc1ccccc1C(C)(C)NC(=O)NCCC(=O)NC1CCCC1" )
-- reply 8.42

-- ask # get_value(readout='cytotoxicity at 10 µM', item= COc1ccc(Cl)cc1-c1cc(NC(=O)C2CNC(=O)N2)[nH]n1 (centres undefined) )
-- reply -1.12

-- ask # get_value(readout='cytotoxicity at 10 µM', item= "Cc1n[nH]c(=O)c(C(=O)N2CCN(CCc3cccs3)CC2)c1C" )
-- reply -6.22

-- ask # get_value(readout='cytotoxicity at 10 µM', item= CC(NC(=O)N(C)Cc1ccsc1)c1ccc2c(c1)NC(=O)CO2 (centres undefined) )
-- reply -7.77

-- ask # get_value(readout='cytotoxicity at 10 µM', item= "COC(=O)Cn1c(=O)cc(C(F)F)c2c(C)nn(CC(F)F)c21" )
-- reply 6.2

-- ask # get_value(readout='cytotoxicity at 10 µM', item= Cc1cn[nH]c1C1COCCN1Cc1ccsc1 (centres undefined) )
-- reply 2.56

-- ask # get_value(readout='cytotoxicity at 10 µM', item= Cc1noc(C)c1CN1CC2(CCCCN2c2cncnc2)CC1=O (centres undefined) )
-- reply 4.13

-- ask # get_value(readout='cytotoxicity at 10 µM', item= COc1ccccc1CC(=O)NC(C)c1nc2cccnc2n1C(C)C (centres undefined) )
-- reply -43.8

-- ask # get_value(readout='cytotoxicity at 10 µM', item= CC(NC(=O)CCCn1cnc2ccccc2c1=O)c1ncn[nH]1 (centres undefined) )
-- reply -4.31

-- ask # get_value(readout='cytotoxicity at 10 µM', item= Cc1cnc(CN2CCC(N(C)Cc3noc(C4CC4)n3)C2)o1 (centres undefined) )
-- reply -12.6

-- ask # get_value(readout='cytotoxicity at 10 µM', item= "Cn1cc(CCNC(=O)CCc2ccc3c(c2)OCO3)cn1" )
-- reply -7.15

-- ask # get_value(readout='cytotoxicity at 10 µM', item= CC(C)N1CCCC1c1cc(C(F)(F)F)[nH]n1 (centres undefined) )
-- reply 0.171

-- ask # get_value(readout='cytotoxicity at 10 µM', item= "O=C(Nc1ccccc1C(=O)NCCN1CCOCC1)c1ccco1" )
-- reply -0.972

-- ask # get_value(readout='cytotoxicity at 10 µM', item= "COc1ccc(CN2C[C@H]3CC[C@@H](C2)N(Cc2snnc2C)C3)cc1" )
-- reply -21.7

-- ask # get_value(readout='cytotoxicity at 10 µM', item= "CCNc1ccnc(NC2CCN(S(C)(=O)=O)CC2)n1" )
-- reply -5.16

-- ask # get_value(readout='cytotoxicity at 10 µM', item= "c1cc(COC[C@H]2CCC[C@]23CNCCO3)ccn1" )
-- reply -99.1

meta.source: ChEMBL document CHEMBL4513216
